// provenance: PubChem BioAssay (NCI)

test system: HCT-116 colon; test: NCI-60 one-dose screen, 48 h; conditions: 10 µM unless noted
This is part of a sample that, as a whole, favours compounds with a hit. Of some 83,000 tested, about 20% had one in any assay. Activity calls are given as the source filed them. The calls were made as follows: active = growth percent below 10; inactive = the rest.
Please reply with one of these outcomes: Yes = active, No = inactive

[
  {
    "compound": "CC1(C)CC[C@]2(C(N)=O)CC[C@]3(C)C(=CC[C@@H]4[C@@]5(C)C/C(=C/c6cccnc6)C(=O)C(C)(C)[C@@H]5CC[C@]43C)[C@@H]2C1",
    "study target": "HCT-116 colon",
    "answer label": "Yes"
  },
  {
    "compound": "CC(C)C1=NOC(=O)C1=Cc1cn(-c2cccnc2)nc1-c1ccccc1",
    "study target": "HCT-116 colon",
    "answer label": "No"
  },
  {
    "compound": "COc1ccc2c(c1)c(-c1noc(C(=O)c3cn(C)c4ncc(Br)cc34)n1)cn2C",
    "study target": "HCT-116 colon",
    "answer label": "No"
  },
  {
    "compound": "Cc1cnc(N)nc1OCC(C)(C)CNC(=O)c1cccc(-c2ccc(S(=O)(=O)Nc3ccc4c(c3)N(C(=O)C3CC3)CCC4)cc2)c1",
    "study target": "HCT-116 colon",
    "answer label": "No"
  },
  {
    "compound": "Cc1cccc([N+](=O)[O-])c1I",
    "study target": "HCT-116 colon",
    "answer label": "No"
  }
]

## Task Name the outcome recorded for COc1ccc(C(=O)CSc2nccc(Nc3ccc(C(=O)O)cc3)n2)cc1 in the assay.
## Result No

## Task Name the outcome recorded for Oc1c(CNCCNCc2cc(Cl)cc(Cc3ccccc3)c2O)cc(Cl)cc1Cc1ccccc1 in the assay.
## Result No

## Task Name the outcome recorded for CCOc1ccccc1/C=N\Nc1ccc(S(=O)(=O)c2ccc(N/N=C/c3ccccc3OCC)cc2)cc1 in the assay.
## Result No

## Task Name the outcome recorded for Cc1ccc(N)c(O)c1 in the assay.
## Result No

## Task Name the outcome recorded for O=C1CC(C(F)(F)F)Cc2nc3ccc(Br)cc3cc21 (centres undefined) in the assay.
## Result No

## Task Name the outcome recorded for COc1ccc(C(=O)c2nccc3cc(OC)c(OC)cc23)cc1OC in the assay.
## Result No

## Task Name the outcome recorded for C=C(C)[C@@H]1CC[C@]2(C(N)=O)CC[C@]3(C)[C@H](CC[C@@H]4[C@@]5(C)CC[C@H](O)C(C)(C)[C@@H]5CC[C@]43C)[C@@H]12 in the assay.
## Result Yes

## Task Name the outcome recorded for CCCC[C@@H](C=O)NC(=O)[C@H](CC(C)C)NC(=O)[C@H](CC(C)C)NC(=O)OCc1ccccc1 in the assay.
## Result Yes

## Task Name the outcome recorded for CC(C)c1ccc(C(=O)Nc2nc3ccc(O)cc3s2)cc1 in the assay.
## Result No

## Task Name the outcome recorded for C=C(C)[C@@H]1CC[C@]2(COC(=O)c3ccccc3C(=O)O)CC[C@]3(C)[C@H](CC[C@@H]4[C@@]5(C)CC[C@H](OC(=O)c6ccccc6C(=O)O)C(C)(C)[C@@H]5CC[C@]43C)[C@@H]12 in the assay.
## Result No

## Task Name the outcome recorded for COc1ccc(-c2cc(-c3ccc(OC)c(OC)c3)nc(SCCCCCC(=O)NO)n2)cc1 in the assay.
## Result No

## Task Name the outcome recorded for O=C(NCCCCCCCNC(=O)OCc1ccc2c(Cl)cc(Cl)c(O)c2n1)OCc1ccc2c(Cl)cc(Cl)c(O)c2n1 in the assay.
## Result Yes

## Task Name the outcome recorded for CCOC(=O)COc1ccc2c(c1)O/C(=C\c1ccc(O)cc1)C2=O in the assay.
## Result No

## Task Name the outcome recorded for O=C(CCNCc1ccccc1)c1ccccc1 in the assay.
## Result No
